// GI50 lookup, one value per entry
System: SF-295
Assay: NCI tumour cell line growth inhibition, 48 h
Active and inactive are the calls of the source. No stated cut-off is given here; in the data, active = GI50 up to about 1.1 µM and inactive = higher.

compound	GI50
CSc1n/c(=N\c2ccccc2)sn1-c1ccccc1	21.5 µM (inactive)
S=C1Cc2c([nH]c3ccccc23)-c2ccccc2N1	98.6 µM (inactive)
COc1ccc(C2C3COc4ccccc4C3=NN2c2ccccc2)cc1 (stereo not drawn)	> 100 µM (inactive)
CC(=O)Nc1ccc2c(c1)nc1c3ccccc3ccn21	85.9 µM (inactive)
CN(C)C(=O)Nc1c([N+](=O)[O-])cc(C(F)(F)F)cc1[N+](=O)[O-]	63.4 µM (inactive)
COC(=O)c1ccccc1NC(=O)C(=O)CC(=O)c1ccccc1NC1=CC(=O)C(=O)c2ccccc21	15.6 µM (inactive)

Exercise: Look at this compound and give its reported GI50. COc1cc2c3c(c1OC)-c1c(ccc4c1OCO4)CC3(C#N)N(C(=O)c1ccccc1)CC2 (stereo not drawn)
Key: 41.4 µM (inactive)

Exercise: Look at this compound and give its reported GI50. O=C1CC(n2cccc2)c2cc(Br)sc21 (stereo not drawn)
Key: > 100 µM (inactive)

Exercise: Look at this compound and give its reported GI50. Cc1nnc(N)nc1/C=C\c1cccs1
Key: 21.4 µM (inactive)

Exercise: Look at this compound and give its reported GI50. O=C1c2ccccc2C(=O)[C@@]23O[C@@]12C1(Oc2cccc4cccc(c24)O1)[C@@H]1O[C@@H]1[C@@H]3O
Key: 12.9 µM (inactive)

---

Test system: EKVX
Assay: NCI tumour cell line growth inhibition, 48 h
Calls of active or inactive are those of the source. Rule as the data show it: active = GI50 up to about 1.1 µM and inactive = higher.
// GI50 lookup, one value per entry

Example entries and their recorded answers appear below.
molecule	result
C1CSCCSCCSCCSCCS1	> 100 µM (inactive)
COc1nc(-c2c[nH]c3ccccc23)cnc1N	6.35 µM (inactive)
CC(C)(C)[Si](C)(C)OCCc1ccccc1C1CC2(S(=O)(=O)c3ccccc3)ON1CC2S(=O)(=O)c1ccccc1 (stereo not given)	> 100 µM (inactive)
O=C(O)c1ccc(NC(c2ccccc2)c2ccc3cccnc3c2O)cc1 (stereo not given)	7.85 µM (inactive)
CC(=O)NC(CCCN)C(=O)NCc1ccccc1 (stereo not given)	> 100 µM (inactive)
CCOC(=O)/C(O)=C/c1cc(OC)cc(=O)o1	> 100 µM (inactive)
CCCCCCN1C(=O)CC(=O)N(CCCCCC)S1(=O)=O	20.8 µM (inactive)
CC1C(c2ccccc2O)c2cc3c(cc2OC1N1CCCC1)OCO3 (stereo not given)	41.9 µM (inactive)
O=NN(CCCl)C(=O)NCc1ccc[n+]([O-])c1	> 100 µM (inactive)

Next molecule, please.
Exercise: Look at this molecule and give its reported GI50. Cc1ccc(Nc2nc3c(=O)n(C)c(=O)n(C)c3nc2Nc2ccc(C)cc2)cc1
Key: 16 µM (inactive)

---

// GI50 lookup, one value per entry
System: EKVX
Assay: NCI tumour cell line growth inhibition, 48 h
Calls of active or inactive are those of the source. Cut-off read from the data, not from the text of the source: active = GI50 up to about 1.1 µM and inactive = higher.

molecule	experimental-system	result
S=C1Cc2c([nH]c3ccccc23)-c2ccccc2N1	EKVX	40.4 µM (inactive)

Exercise: // fetch EKVX GI50 for Cc1nnc(N)nc1/C=C\c1cccs1
Key: 13.3 µM (inactive)

Exercise: // fetch EKVX GI50 for O=C(NC(=O)c1cc(-c2ccccc2)n[nH]1)c1ccccc1
Key: > 100 µM (inactive)

Exercise: // fetch EKVX GI50 for CSc1n/c(=N\c2ccccc2)sn1-c1ccccc1
Key: 27.5 µM (inactive)

Exercise: // fetch EKVX GI50 for C1CCN(c2nsc(N3CCCCC3)n2)CC1
Key: > 100 µM (inactive)

Exercise: // fetch EKVX GI50 for CC(C)(C)OC(=O)NCCC1CN(C(=O)c2ccccc2)c2ccccc21 (stereo not drawn)
Key: 25.6 µM (inactive)

Exercise: // fetch EKVX GI50 for COc1ccc(C(=O)Nc2ccn(CCOC(=O)c3ccc(OC)cc3)c(=O)n2)cc1
Key: > 100 µM (inactive)

Exercise: // fetch EKVX GI50 for CC1CCCc2c(C#N)c(N)nc(-c3ccc(Cl)cc3)c21 (stereo not drawn)
Key: 14.7 µM (inactive)

---

// GI50 lookup, one value per entry
Test system: SNB-19
Assay: NCI tumour cell line growth inhibition, 48 h
Active and inactive are the calls of the source. Rule as the data show it: active = GI50 up to about 1.1 µM and inactive = higher.

Example entries and their recorded answers appear below.
molecule	result
C1=N\CCOCC/N=C/c2ccccc2OCc2cccc(n2)COc2ccccc2/1	9.51 µM (inactive)
Cc1cn(C2CC3C(COCN3O)O2)c(=O)[nH]c1=O (centres undefined)	> 100 µM (inactive)
O=C(O)CCSC(=S)Nc1cccc(F)c1	45.2 µM (inactive)

Next molecule, please.
Exercise: Look at this molecule and give its reported GI50. Clc1ccc2c(c1)[nH]c1c2nc2sccn21
Key: > 100 µM (inactive)

---

Test system: OVCAR-4
Assay: NCI tumour cell line growth inhibition, 48 h
The source made the active and inactive calls. Cut-off read from the data, not from the text of the source: active = GI50 up to about 1.1 µM and inactive = higher.
Could you please pick one outcome from this set? yes = active, no = inactive

// known answers, use as guide
molecule	experimental-system	group-label
CCOC(=O)C(=O)N1C(C)=C(C(=O)OCC)CC(C(=O)OCC)=C1C	OVCAR-4	no
CC(=O)Nc1cc(C(=O)Nc2cc(C(=O)N3CC(CCl)c4c3cc(N)c3ccccc43)nn2C)nn1C (stereo not drawn)	OVCAR-4	yes

Okay, now this molecule:
Exercise: Name the outcome recorded for N#C[BH2-][n+]1cn(C2CC(O)C(COP(=O)(O)OC3CC(n4ccc(N)nc4=O)OC3CO)O2)c2nc(N)[nH]c(=O)c21 (stereo not drawn) in the assay.
Key: no

---

Tested on: M19-MEL
Experiment: NCI tumour cell line growth inhibition, 48 h
Calls of active or inactive are those of the source. Cut-off read from the data, not from the text of the source: active = GI50 up to about 1.1 µM and inactive = higher.
Could you please pick one outcome from this set? class 1 = active, class 0 = inactive

compound	experimental-system	group-label
CC(=O)OC1C(O)C(C)OC(OC2C(OC(=O)C3CCC4C(C3)OC3(CC(OC(=O)/C=C/c5ccccc5)C(C)CO3)C43CO3)OC(C)C(O)C2OC(C)=O)C1O (stereo not drawn)	M19-MEL	class 1

Exercise: Name the outcome recorded for CCOCC(=O)N[C@H]1CCc2cc(OC)c(OC)c(OC)c2-c2ccc(OC)c(=O)cc21 in the assay.
Key: class 1

Exercise: Name the outcome recorded for COc1cccc(NC(=O)C(C)(C)C)c1SSc1c(NC(=O)C(C)(C)C)cccc1OC in the assay.
Key: class 0

---

Test system: MOLT-4
Assay: NCI tumour cell line growth inhibition, 48 h
Activity calls are given as the source filed them. Cut-off read from the data, not from the text of the source: active = GI50 up to about 1.1 µM and inactive = higher. Non-standard residues stand in square brackets, D forms with d. Residues, ends and D or L forms follow the SMILES beside them. ξ: configuration not given here. *: point of attachment. ξHyp = O=C(O)C1CC(O)CN1; Cbz = O=C(OCc1ccccc1)*
// GI50 lookup, one value per entry

compound	GI50
CCC(=O)N1NC(=O)C(CC)(CC)C1=O	> 100 µM (inactive)
O=C1Nc2ccccc2/C1=N/Nc1ncccc1[N+](=O)[O-]	48.1 µM (inactive)
O=C(Cn1c2ccc(Br)cc2c2nc3ccccc3nc21)N/N=C/c1ccccc1	> 10 µM (inactive)

Exercise: Look at this compound and give its reported GI50. CNC(=O)CN(C)C(=O)CCC(=O)N(C)C
Key: > 100 µM (inactive)

Exercise: Look at this compound and give its reported GI50. NC(=O)CNC(=O)C1CC(O)CN1C(=O)OCc1ccccc1 (stereo not given) (Cbz-[ξHyp]-Gly-NH2)
Key: > 100 µM (inactive)

Exercise: Look at this compound and give its reported GI50. O=S(=O)(O)c1ccc2c(/N=N/c3ccc(Cl)cc3)c(O)ccc2c1
Key: > 100 µM (inactive)

Exercise: Look at this compound and give its reported GI50. [N-]=[N+]=CC(=O)OCC1NC(=O)C(COC(=O)C=[N+]=[N-])NC1=O (stereo not given)
Key: > 100 µM (inactive)

Exercise: Look at this compound and give its reported GI50. COc1ccc(-c2cc3ccccc3[nH]c2=O)cc1OC
Key: > 100 µM (inactive)

Exercise: Look at this compound and give its reported GI50. C1CCN(c2nsc(N3CCCCC3)n2)CC1
Key: > 100 µM (inactive)

Exercise: Look at this compound and give its reported GI50. O=C(/C=C/c1ccccc1)Oc1cccc(Br)c1
Key: 11.6 µM (inactive)

---

Test system: HCT-116
Assay: NCI tumour cell line growth inhibition, 48 h
The source made the active and inactive calls. No stated cut-off is given here; in the data, active = GI50 up to about 1.1 µM and inactive = higher.
measure: GI50

Example entries and their recorded answers appear below.
compound	GI50
Cn1nc2ccc([N+](=O)[O-])c(Cn3nnc4ccccc43)c2n1	> 100 µM (inactive)
CCOC(C[Se]CC(OCC)OCC)OCC	32.7 µM (inactive)
Cc1cc(C)c(S(=O)(=O)N(CCCN)OCCON(CCCN)S(=O)(=O)c2c(C)cc(C)cc2C)c(C)c1	2.24 µM (inactive)
Cc1[nH]c(-c2ccccc2)c(O)c1C(=O)OC12CC3CC(CC(C3)C1)C2	16.7 µM (inactive)
O=NN(CCCl)C(=O)NCc1ccc[n+]([O-])c1	> 100 µM (inactive)

Exercise: Look at this compound and give its reported GI50. Cc1ccc(S(=O)(=O)N2CCCCN(S(=O)(=O)c3ccc(C)cc3)Cc3ccccc3OCCOCCOc3c4cccc3Cc3cccc5c3OCCOCCOc3ccccc3CN(S(=O)(=O)c3ccc(C)cc3)CCCN(S(=O)(=O)c3ccc(C)cc3)Cc3ccccc3OCCOCCOc3c(cccc3C4)Cc3cccc(c3OCCOCCOc3ccccc3C2)C5)cc1
Key: > 100 µM (inactive)

Exercise: Look at this compound and give its reported GI50. O=c1ccc(=O)n(-c2ccccc2)[nH]1
Key: > 100 µM (inactive)

Exercise: Look at this compound and give its reported GI50. O=C(/C=C/c1ccccc1)Oc1cccc(Br)c1
Key: 25.6 µM (inactive)

Exercise: Look at this compound and give its reported GI50. N#CC1=C(Nc2ccccc2)SC=C(c2ccccc2)N=C1NCc1ccccc1
Key: > 100 µM (inactive)

Exercise: Look at this compound and give its reported GI50. CS/C(c1ccccc1)=[N+](\[O-])Cc1ccccc1
Key: > 100 µM (inactive)

Exercise: Look at this compound and give its reported GI50. CC(C)NC(=O)OCc1c(COC(=O)NC(C)C)c(-c2cc[n+](COC(=O)C3CCCCC3)cc2)n2c1CCC2
Key: > 100 µM (inactive)

Exercise: Look at this compound and give its reported GI50. CC(C)(C)OC(=O)C1CCC/C1=N/Nc1ccc([N+](=O)[O-])cc1[N+](=O)[O-] (stereo not drawn)
Key: 21.4 µM (inactive)

Exercise: Look at this compound and give its reported GI50. O=c1c2c3c(sc2nc(S)n1-c1ccccc1)CCCc1ccc([N+](=O)[O-])cc1-3
Key: 39.1 µM (inactive)

Exercise: Look at this compound and give its reported GI50. COc1ccc(-c2cc3ccccc3[nH]c2=O)cc1OC
Key: > 100 µM (inactive)

Exercise: Look at this compound and give its reported GI50. N#CC(N)(C(=O)C(=O)NCCCNC(=O)C(=O)C(N)(C#N)c1ccc(Cl)cc1)c1ccc(Cl)cc1 (stereo not drawn)
Key: > 100 µM (inactive)

Exercise: Look at this compound and give its reported GI50. CCOC(=O)/C(O)=C/c1cc(OC)cc(=O)o1
Key: > 100 µM (inactive)

Exercise: Look at this compound and give its reported GI50. CC(C)OC(=O)NNc1c(Cl)cc(Cl)cc1Cl
Key: 80.9 µM (inactive)

Exercise: Look at this compound and give its reported GI50. Clc1ccc(OCc2nn3c(CCc4nnc5sc(COc6ccc(Cl)cc6)nn45)nnc3s2)cc1
Key: 21.9 µM (inactive)
